Quick reference: melting point of the listed items.

Consider the reported melting point for these molecules:
[[record]]
molecule = "CCCc1nc(C(C)(C)O)c(C(=O)O)n1Cc1ccc(-c2ccccc2C(=O)OC(C)(C)C)cc1"
property = "melting point"
value = "155 to 157 °C"

[[record]]
molecule = "CCCn1nc(C(C)C)c(C(=O)OCc2cccc(C(=O)c3ccccc3)c2)c1Cc1ccc(-c2ccccc2S(=O)(=O)NC(=O)OC(C)(C)C)c(F)c1"
property = "melting point"
value = "55 to 59 °C"

[[record]]
molecule = "COc1cc(N)c([N+](=O)[O-])c(OC(F)F)c1OC"
property = "melting point"
value = "141 to 142 °C"

[[record]]
molecule = "COc1ccc(CCNC(=O)CNc2ccc(C)cc2)cc1OC"
property = "melting point"
value = "87 to 88.5 °C"

[[record]]
molecule = "Fc1ccc(N2CCN(CCCOc3ccccc3-c3nnco3)CC2)cc1"
property = "melting point"
value = "102 to 103 °C"


I would be grateful if you could share the reported melting point for Cc1cc(-c2cccc(C3=Nc4ccc(-c5ccc(F)cc5)cc4NC(=O)C3)c2)on1 .
> 250 °C

# repeat for CCCCCN(Cc1ccc(-c2ccccc2S(=O)(=O)NC(=O)c2ccccc2Cl)cc1)C(=O)N1CCc2ccccc21
83 to 85 °C

Entry to check: CC(Oc1ccccc1)C(=O)NCCCCn1cnc2c(N)nc3ccccc3c21 (stereo not drawn)
85 to 87.5 °C

* * *

Each record here notes measured melting point.

Solved cases (4 shown):
[[record]]
compound_structure_string = "CNC(=S)NCCCSc1cncc(NC(N)=NCC(F)(F)F)n1"
value = "165 to 167 °C"

[[record]]
compound_structure_string = "Cc1ccc(-c2nc(C)c3ccccc3n2)nc1-c1ccccc1"
value = "141 to 143 °C"

[[record]]
compound_structure_string = "COC(=O)c1cccc2[nH]c(=O)c(C(=O)c3ccccc3)c(O)c12"
value = "263 to 265 °C"

[[record]]
compound_structure_string = "NS(=O)(=O)c1cccc2c1ccc1nc(O)c(O)nc12"
value = "420 °C"


# input for lookup
Form field: reported melting point of CC(=O)Nc1nc2cc(-c3ccc(C=C4SC(=O)NC4=O)cn3)cc(C34CC5CC(CC(C5)C3)C4)c2o1
> 360 °C

* * *

property: melting point

[[record]]
molecule = "S=C=NCc1cc(-c2ccccc2)no1"
value = "66 °C"

[[record]]
molecule = "CCCOc1ccc(Nc2c([N+](=O)[O-])ccc(Cl)c2C(=O)O)cc1"
value = "194 to 196 °C"

[[record]]
molecule = "COCCn1cc(C2CCN(CCOc3ccccc3C(=O)O)CC2)c2ccccc21"
value = "139 to 140 °C"

[[record]]
molecule = "COC(=O)c1cc(CO)cc([N+](=O)[O-])c1"
value = "76.5 to 77.5 °C"


Any idea what its melting point is? The molecule is CNC(=O)Oc1ccc(NC(=O)C(C)Cl)c(C)c1 (centres undefined)
167 to 170 °C

Now this one: O=C1C=CC(=O)C2=C1OCO2
106 to 107 °C

Then what about the molecule CN1Cc2c(Cl)ncn2-c2ccccc2C1=S ?
198 °C

One more molecule: COCCOCc1ccc(C#CC2(O)CN3CCC2CC3)c(F)c1 (centres undefined)
117 to 118 °C

For Nc1nnc(OCc2ccccc2)s1 then?
173 to 175 °C

Field entry: CC#Cc1cnc(OC)nc1
88 to 89.5 °C

// repeat for O=C(O)c1ccc(C(F)(F)F)c([N+](=O)[O-])c1 and report
156 to 158 °C

Lookup CCCCCCCCCCCCCCCCCC(O)C[N+](=O)[O-] (centres undefined)
55 to 56 °C
